The entries below come with measured MIC Enterococcus avium (GC 4558) values attached.
# System: Enterococcus sp.
# Assay comment: in vitro antibacterial evaluation, MIC by broth dilution
# Type: cell-based
# Test context: broth dilution, 18 hours at 35° C.
The answer is to be given in µg/mL; state only the numeric part.

Examples from the recorded data:
[[record]]
compound = "CC(c1ccccc1)C1NC(=O)CNC(=O)C(CO)NC(=O)C(CC2CNC(=N)N2C2OC(CO)C(O)C(O)C2O)NC(=O)C(CC2CNC(=N)N2)NC(=O)C(Cc2ccc(OC3OC(CO)C(OC4OC(CO)C(O)C(OCc5ccc(OCc6ccccc6)cc5)C4O)C(O)C3O)cc2)NC1=O (stereo not drawn) [Example 246b]"
parameter = "MIC Enterococcus avium (GC 4558)"
recorded_measurement = 64

[[record]]
compound = "CC(c1ccccc1)C1NC(=O)CNC(=O)C(CO)NC(=O)C(CC2CN(Cc3ccccc3)C(=NCc3ccccc3)N2C2OC(CO)C(O)C(O)C2O)NC(=O)C(CC2CN(Cc3ccccc3)C(=NCc3ccccc3)N2Cc2ccccc2)NC(=O)C(Cc2ccc(OC3OC(CO)C(OC4OC(CO)C(O)C(O)C4O)C(O)C3O)cc2)NC1=O (stereo not drawn) [Example 73]"
parameter = "MIC Enterococcus avium (GC 4558)"
recorded_measurement = 128

[[record]]
compound = "CC(C1CCCCC1)C1NC(=O)CNC(=O)C(CO)NC(=O)C(C(O)C2CNC(=N)N2C2OC(CO)C(O)C(O)C2O)NC(=O)C(C(O)C2CNC(=N)N2)NC(=O)C(C[C@H]2CC[C@H](O)CC2)NC1=O (stereo partly drawn) [Example 54a]"
parameter = "MIC Enterococcus avium (GC 4558)"
recorded_measurement = 128

[[record]]
compound = "CC(c1ccccc1)C1NC(=O)CNC(=O)C(CO[Si](C)(C)C(C)(C)C)NC(=O)C(C(O)C2CNC(=N)N2C2OC3COC(C)(C)OC3C3OC(C)(C)OC32)NC(=O)C(C(O)C2CNC(=N)N2)NC(=O)C(Cc2ccc(O)cc2)NC1=O (stereo not drawn) [Example 248]"
parameter = "MIC Enterococcus avium (GC 4558)"
recorded_measurement = 8

[[record]]
compound = "CC(c1ccccc1)C1NC(=O)CNC(=O)C(CO)NC(=O)C(C(O)C2CNC(=N)N2C2OC(CO)C(O)C(O)C2O)NC(=O)C(C(O)C2CNC(=N)N2)NC(=O)C(Cc2ccc(OC3OC(COC(=O)C(c4ccccc4)c4ccccc4)C(OC4OC(CO)C(O)C(O)C4O)C(O)C3O)cc2)NC1=O (stereo not drawn) [Example 96b]"
parameter = "MIC Enterococcus avium (GC 4558)"
recorded_measurement = 4

[[record]]
compound = "CC(c1ccccc1)C1NC(=O)CNC(=O)C(CO)NC(=O)C(CC2CNC(=N)N2C2OC(CO)C(O)C(O)C2O)NC(=O)C(CC2CNC(=N)N2)NC(=O)C(Cc2ccc(OC3OC(CO)C(OC4OC5COC(c6ccc(OCc7ccccc7)cc6)OC5C(O)C4O)C(O)C3O)cc2)NC1=O (stereo not drawn) [Example 191]"
parameter = "MIC Enterococcus avium (GC 4558)"
recorded_measurement = 4

[[record]]
compound = "CC(c1ccccc1)C1NC(=O)CNC(=O)C(CO)NC(=O)C(C(O)C2CN(Cc3ccccc3-c3ccccc3)C(=N)N2C2OC(CO)C(O)C(O)C2O)NC(=O)C(C(O)C2CNC(=N)N2)NC(=O)C(Cc2ccc(OC3OC(CO)C(OC4OC(CO)C(O)C(O)C4O)C(O)C3O)cc2)NC1=O (stereo not drawn) [Example 65]"
parameter = "MIC Enterococcus avium (GC 4558)"
recorded_measurement = 128

[[record]]
compound = "CC(c1ccccc1)C1NC(=O)CNC(=O)C(CO)NC(=O)C(C(O)C2CN(c3ncccn3)C(=N)N2C2OC(CO)C(O)C(O)C2O)NC(=O)C(C(O)C2CNC(=Nc3ncccn3)N2)NC(=O)C(Cc2ccc(OC3OC(CO)C(OC4OC(CO)C(O)C(O)C4O)C(O)C3O)cc2)NC1=O (stereo not drawn) [Example 92]"
parameter = "MIC Enterococcus avium (GC 4558)"
recorded_measurement = 128


Given the compound CCCCCCN=C1NCC(C(O)C2NC(=O)C(C(O)C3CNC(=N)N3)NC(=O)C(Cc3ccc(OC4OC(CO)C(OC5OC6COC7(OC6C(O)C5O)C5CC6CC(C5)CC7C6)C(O)C4O)cc3)NC(=O)C(C(C)c3ccccc3)NC(=O)CNC(=O)C(CO)NC2=O)N1C1OC(CO)C(O)C(O)C1O (stereo not drawn) [Example 84] , what is its reported MIC Enterococcus avium (GC 4558)?
8

Do the same for CC(c1ccccc1)C1NC(=O)CNC(=O)C(CO)NC(=O)C(C(O)C2CNC(=N)N2C2OC(CO)C(O)C(O)C2O)NC(=O)C(C(O)C2CNC(=N)N2)NC(=O)C(Cc2ccc(OC3OC(CO)C(OC4OC5COC6(OC5C(O)C4O)C4CCCC6CCC4)C(O)C3O)cc2)NC1=O (stereo not drawn) [Example 212] please
4
